# Tested on: DU-145 prostate
# TEST: NCI tumour cell line growth inhibition, 48 h
A collection of compounds and their measured TGI
// note: answer is a bare numeric in µM

compound=COc1ccc(/C=C/C(=O)/C=C(/C=C/c2ccc(OC)c(OC)c2)OB(F)F)cc1OC measurement_type=TGI quantitative_readout=2.84
compound="CC(=O)N1c2ccccc2C2=NN=C(N(C)C)SC21 (stereo not given)" measurement_type=TGI quantitative_readout=7.45

Input: Return TGI measured with DU-145 prostate given this compound: Cc1c2ncccc2c(C)c2c1[nH]c1ccc(O)cc12
Output: 17.9

Input: Return TGI measured with DU-145 prostate given this compound: COc1c(O)cc2oc3cc(O)c(CC=C(C)C)c(O)c3c(=O)c2c1C/C=C(\C)CCC=C(C)C
Output: 10.5

Input: Return TGI measured with DU-145 prostate given this compound: COc1ccc(C(=O)c2cc(OC)c(OC)c(OC)c2)cc1/C=C/C(=O)c1ccc(O)cc1
Output: 3.45

Input: Return TGI measured with DU-145 prostate given this compound: COC(=O)C1=C(O)C(C(=O)OC)[C@]2(O)[C@H](C(=O)OC)[C@H]1C[C@@H](c1ccc(Cl)cc1Cl)[C@H]2C(=O)OC (stereo not given in full)
Output: 25.7

----------
# Tested on: HCC-2998 colon
# TEST: NCI tumour cell line growth inhibition, 48 h
A collection of compounds and their measured TGI

# count of solved cases: 5
compound=COc1ccc(/C=C\c2cc(OC)c(OC)c(OC)c2)cc1NC(=O)[C@@H](N)CO measurement_type=TGI result="> 100 µM"
compound=CN(C)CCN1N=Nc2cccc3cccc1c23 measurement_type=TGI result="> 100 µM"
compound=COc1ccc(-n2c(-c3ccc(NC(=O)CCCl)cc3)nnc2-c2cc(OC)c(OC)c(OC)c2)cc1 measurement_type=TGI result="7.07 µM"
compound="CC(C)C(=O)CC(Sc1ccc(N)cc1)c1ccccc1 (stereo not given)" measurement_type=TGI result="57.5 µM"
compound=CS(=O)(=O)c1ccc(Oc2nccc(-c3c(-c4ccc(F)cc4)ncn3C3CCNCC3)n2)cc1 measurement_type=TGI result="> 25 µM"

Input: Return TGI measured with HCC-2998 colon given this compound: COc1cccc(-c2nc(-c3ccc(NS(=O)(=O)c4ccccc4)cc3)[nH]c2-c2ccnc(Br)c2)c1
Output: 4.71 µM

Input: Return TGI measured with HCC-2998 colon given this compound: Cc1ccc(-n2nnc3c(NNc4ccccc4)n[nH]c(=O)c32)cc1
Output: > 100 µM

Input: Return TGI measured with HCC-2998 colon given this compound: COc1ccc(/C=C/C(=O)c2cccc(C(=O)/C=C/c3ccc(OC)c(OC)c3)n2)cc1OC
Output: > 100 µM

Input: Return TGI measured with HCC-2998 colon given this compound: COc1ccc2c(CN3CCC(CO)CC3)cc3cc4c(cc3c2c1)OCO4
Output: 1.41 µM

Input: Return TGI measured with HCC-2998 colon given this compound: O=C(c1ccccc1)c1ccc2cccc(O)c2n1
Output: > 100 µM

----------
# Test system: OVCAR-8 ovarian
# TEST: NCI tumour cell line growth inhibition, 48 h; in the data active means GI50 below about 0.43 µM; inactive means the rest
Choose the fitting class; nothing outside active, inactive is accepted.

molecular_string=O=C1c2cccnc2-c2nc(-c3ccccn3)cc3c2c1nc1ccccc13 assayed_target="OVCAR-8 ovarian" group_label=active

Input: Record lookup: outcome of this test for c1ccc(Oc2c3ccccc3nc3ccccc23)cc1 ?
Output: inactive

Input: Record lookup: outcome of this test for COc1ccc2c(CN3CCC(CO)CC3)cc3cc4c(cc3c2c1)OCO4 ?
Output: active

Input: Record lookup: outcome of this test for COc1cccc2c(Nc3ccc(C(=O)NCCNCCO)cc3)cc(-c3ccccc3)nc12 ?
Output: inactive

Input: Record lookup: outcome of this test for Cc1cc(S(=O)(=O)Nc2nnc(-c3ccco3)c(-c3ccco3)n2)c(SCc2ccccc2)cc1Cl ?
Output: inactive

Input: Record lookup: outcome of this test for COC(=O)c1ccc(-c2nc3cc(F)c(F)cc3nc2C#N)cc1 ?
Output: inactive

Input: Record lookup: outcome of this test for COc1ccc(-c2nc3sccn3c2/C=C/C(=O)c2cc(OC)c(OC)c(OC)c2)cc1OC ?
Output: inactive

Input: Record lookup: outcome of this test for COc1cccc(-c2nc(-c3ccc(NS(=O)(=O)c4ccccc4)cc3)[nH]c2-c2ccnc(Br)c2)c1 ?
Output: inactive

Input: Record lookup: outcome of this test for C=C(CN1CCc2ccccc2C1)c1ccc(/C=C/C(=O)Nc2ccccc2N)cc1 ?
Output: inactive

Input: Record lookup: outcome of this test for CCN(Cc1ccc(F)cc1F)c1ccc(CO)c(Cl)c1 ?
Output: inactive

Input: Record lookup: outcome of this test for COC(=O)/C=C1\SC(=Nc2ccc(C(F)(F)F)cc2)N(CCc2c[nH]c3ccccc23)C1=O ?
Output: inactive

Input: Record lookup: outcome of this test for NCCCn1c2c(c3ccccc3c1=O)C(=O)c1cc3c(cc1-2)OCO3 ?
Output: active

----------
A collection of compounds and their measured TGI
# Tested on: CCRF-CEM leukemia
# TEST: NCI tumour cell line growth inhibition, 48 h

# count of solved cases: 3
compound=O=C(Nc1ncc([N+](=O)[O-])s1)c1cccc([N+](=O)[O-])c1 measurement_type=TGI result="> 29.2 µM"
compound=COc1cc(-c2cc(C(=O)Nc3nc4ccccc4s3)nc3cc(-c4ccccc4)nn23)cc(OC)c1OC measurement_type=TGI result="> 100 µM"
compound=Cc1ccc(-n2nnc3c(NNc4ccccc4)n[nH]c(=O)c32)cc1 measurement_type=TGI result="> 100 µM"

Input: Return TGI measured with CCRF-CEM leukemia given this compound: CC1=CCP(C(F)(F)F)P(C(F)(F)F)C1 (configuration not stated)
Output: > 100 µM

Input: Return TGI measured with CCRF-CEM leukemia given this compound: O=C1C(Cl)=C(Oc2ccccc2)C(=O)c2ccccc21
Output: 8.32 µM

Input: Return TGI measured with CCRF-CEM leukemia given this compound: Nc1ccc2c(c1)N(C(=O)CCCC(=O)N1CC(CCl)c3ccc(N)cc31)CC2CCl (configuration not stated)
Output: > 20.1 µM

Input: Return TGI measured with CCRF-CEM leukemia given this compound: COC(=O)/C=C1\SC(=Nc2ccc(C(F)(F)F)cc2)N(CCc2c[nH]c3ccccc23)C1=O
Output: 7.22 µM

Input: Return TGI measured with CCRF-CEM leukemia given this compound: CSC1=C(C)S/C(=C\c2ccc(/C=C3\SC(C)=C(SC)S3)cc2)S1
Output: > 100 µM

Input: Return TGI measured with CCRF-CEM leukemia given this compound: CCCCCCCCCCCCOCCCCCCCCC/C=C/c1ccc2c(c1)OCCOCCOCCOCCO2
Output: > 100 µM

Input: Return TGI measured with CCRF-CEM leukemia given this compound: O=C(CSc1nc2ccc([N+](=O)[O-])cc2[nH]1)Nc1cccc(C(F)(F)F)c1
Output: > 60.1 µM

Input: Return TGI measured with CCRF-CEM leukemia given this compound: CN(C)c1ccc(/C=C(\NC(=O)c2ccccc2)c2nc3ccccc3c(=O)o2)cc1
Output: > 100 µM

Input: Return TGI measured with CCRF-CEM leukemia given this compound: O=C(Oc1cccc(Nc2ncnc3ccccc23)c1)c1ccccc1Cl
Output: 65.1 µM

----------
A collection of compounds and their measured TGI
# System: KM12 colon
# TEST: NCI tumour cell line growth inhibition, 48 h

# count of solved cases: 3
compound=CC1=NN(c2cccc(Cl)c2)C(=N/c2nc3ccccc3s2)/C1=C\c1ccccc1O result="> 100 µM"
compound=CC(C)(C)c1ccc(Oc2ccc(C#N)c(C#N)c2)c(C(C)(C)C)c1 result="> 100 µM"
compound="CC1(c2ccccc2)CC12C(=O)NC(=O)NC2=O (stereo unspecified)" result="> 100 µM"

Input: Return TGI measured with KM12 colon given this compound: c1ccc2nc3c(nc2c1)sc1nc2ccccc2n13
Output: > 100 µM

Input: Return TGI measured with KM12 colon given this compound: CC1=CCP(C(F)(F)F)P(C(F)(F)F)C1 (stereo unspecified)
Output: > 100 µM

Input: Return TGI measured with KM12 colon given this compound: COc1ccc(/C=C/C(=N/NC(=O)N/N=C(/C=C/c2ccc(OC)cc2)C(C)C)C(C)C)cc1
Output: > 100 µM

Input: Return TGI measured with KM12 colon given this compound: N.N.NCCCCN.O=C([O-])CC(=O)[O-].O=C([O-])CC(=O)[O-].[Pt+4].[Pt+4]
Output: > 100 µM

Input: Return TGI measured with KM12 colon given this compound: c1ccc(Oc2c3ccccc3nc3ccccc23)cc1
Output: 11 µM

Input: Return TGI measured with KM12 colon given this compound: COC(=O)C1C(O)C(C)C(O)C(C)/C=C\C=C(C)C(=O)Nc2c(C)c(OC(C)=O)c3c(c2O)C(=O)C(C)=C2OCOC(=C23)C(C)=CC(C)(O)C(O)C(C)C1O (stereo unspecified)
Output: > 100 µM

Input: Return TGI measured with KM12 colon given this compound: CC(C)(C)c1cc(C(C)(C)C)c(P=C(Cl)Cl)c(C(C)(C)C)c1 (stereo unspecified)
Output: > 100 µM

Input: Return TGI measured with KM12 colon given this compound: CN(O)C(=O)c1ccc(OCc2cccc(Cl)c2)cc1
Output: > 100 µM
